- ASSAY_METHOD_TEXT: Solubility
- Format: physicochemical
Rule: Solubility below 10000 µg/mL gives 1.0. Equal to or above 10000 µg/mL gives 0.0.

Report whether reported Solubility is lower than 10000 µg/mL (strictly) for COC(=O)[C@H](C)NP(=O)(OCC1C=CC(n2cc(C)c(=O)[nH]c2=O)O1)Oc1cccc(N(C)C)c1 (stereo partly shown) [Compound 599]
0.0

Report whether reported Solubility is lower than 10000 µg/mL (strictly) for COC(=O)[C@H](C)NP(=O)(OCC1C=CC(n2cc(C)c(=O)[nH]c2=O)O1)Oc1ccc(F)cc1 (stereo partly shown) [Compound 604]
1.0

Report whether reported Solubility is lower than 10000 µg/mL (strictly) for COC(=O)[C@H](C)NP(=O)(OCC1C=CC(n2cc(C)c(=O)[nH]c2=O)O1)Oc1ccccc1 (stereo partly shown) [Compound 607]
0.0

Report whether reported Solubility is lower than 10000 µg/mL (strictly) for COC(=O)C(C)NP(=O)(OCC1C=CC(n2cc(C)c(=O)[nH]c2=O)O1)Oc1c(OC)cccc1OC (stereo not shown) [Compound 600]
0.0

Report whether reported Solubility is lower than 10000 µg/mL (strictly) for COC(=O)C(C)NP(=O)(OCC1C=CC(n2cc(C)c(=O)[nH]c2=O)O1)Oc1ccccc1Cl (stereo not shown) [Compound 606]
1.0

Report whether reported Solubility is lower than 10000 µg/mL (strictly) for COC(=O)C(C)NP(=O)(OCC1C=CC(n2cc(C)c(=O)[nH]c2=O)O1)Oc1cc(Cl)ccc1Cl (stereo not shown) [Compound 608]
1.0

Report whether reported Solubility is lower than 10000 µg/mL (strictly) for COC(=O)C(C)NP(=O)(OCC1C=CC(n2cc(C)c(=O)[nH]c2=O)O1)Oc1ccc(Br)cc1Cl (stereo not shown) [Compound 603]
1.0

Report whether reported Solubility is lower than 10000 µg/mL (strictly) for COC(=O)[C@H](C)NP(=O)(OCC1C=CC(n2cc(C)c(=O)[nH]c2=O)O1)Oc1ccc(OC)cc1 (stereo partly shown) [Compound 598]
0.0

Report whether reported Solubility is lower than 10000 µg/mL (strictly) for COC(=O)[C@H](C)NP(=O)(OCC1C=CC(n2cc(C)c(=O)[nH]c2=O)O1)Oc1ccc(C#N)cc1 (stereo partly shown) [Compound 601]
1.0

Report whether reported Solubility is lower than 10000 µg/mL (strictly) for COC(=O)C(C)NP(=O)(OCC1C=CC(n2cc(C)c(=O)[nH]c2=O)O1)Oc1ccccc1Br (stereo not shown) [Compound 605]
1.0
